# Procedure summary: qHTS Screen of the MIPE 4.0 Collection Against Ewings Sarcoma (EW8) (AID 1259255); also: nearly all actives have a fitted effect of over 35% in size
# Run parameters: EW8 Ewing sarcoma viability, CellTiter-Glo, 48 h; series mostly up to 45.8 µM
# Experimental: There is a large unmet medical need for treatments for Ewing sarcoma, a pediatric sarcoma. […] Using the NCATS developed oncology compound library called the Mechanism of Interrogation Plate (MIPE), four Ewing sarcoma cell lines were evaluated (TC32, TC71, RDES, EW8). Compounds, in a 12-point titration series, were incubated with cells for 48 hours and the read out was cell viability (CellTiter-Glo from Promega). […]
Records with an inconclusive call do not appear. The source made the active and inactive calls. Calls follow the shape of the dose curve; as a rule, active = well fitted inhibition curve with a large enough effect; inconclusive = small, poorly fitted or top-dose-only effect; inactive = no such curve, though single readings can be large or run the other way. Starred links: 1 amine or outer side, 2 acyl side, 3 side chain; linkers in the order of their positions; H or OH if unused. Positions of bridges follow the written chain, without caps; N, C: chain ends. Non-standard residues stand in square brackets, D forms with d. Residues, ends and D or L forms follow the SMILES beside them. Chains are numbered I, II in the order given. Actinocin(9to1) = Cc1c2oc3c(C)ccc(C(=O)[*:1])c3nc-2c(C(=O)[*:2])c(N)c1=O; NMeV = CN[CH](C(=O)O)C(C)C; Sar = CNCC(=O)O
Lab note: assign the record to one of YES (active), NO (inactive)

Worked set:
Problem: Assay outcome for C=CC[C@@H]1C=C(C)C[C@H](C)C[C@H](OC)[C@H]2O[C@@](O)(C(=O)C(=O)N3CCCC[C@H]3C(=O)O[C@H](C(C)=C[C@@H]3CC[C@H](O)[C@H](OC)C3)[C@@H](C)[C@@H](O)CC1=O)[C@@H](C)C[C@@H]2OC : what was it?
Result: YES

Problem: Call for entry CCc1c(O)cc(O)c(C(=O)c2ccc(OCCN3CCOCC3)c(OC)c2)c1CC(=O)N(CCOC)CCOC :
Result: YES

Continuing:
Problem: Hey, what did the test say about Cc1c2oc3c(C)ccc(C(=O)NC4C(=O)NC(C(C)C)C(=O)N5CCCC5C(=O)N(C)CC(=O)N(C)C(C(C)C)C(=O)OC4C)c3nc-2c(C(=O)NC2C(=O)NC(C(C)C)C(=O)N3CCCC3C(=O)N(C)CC(=O)N(C)C(C(C)C)C(=O)OC2C)c(N)c1=O (stereo not drawn) (I: TVP[Sar][NMeV] / II: TVP[Sar][NMeV]; ester I:1-I:C, II:1-II:C; linker I:N-II:N via Actinocin(9to1); configuration not given here) ?
Result: NO
